TEST TARGET: T1, human glycophorin A in the red blood cell membrane (human, UniProt P02724 20-150)
T1 construct: whole, on cells; used for intact RBC, isolated RBC membranes and transfected cells; the assay field tells which; also called GPA; hGPA
T1 sequence (looked up): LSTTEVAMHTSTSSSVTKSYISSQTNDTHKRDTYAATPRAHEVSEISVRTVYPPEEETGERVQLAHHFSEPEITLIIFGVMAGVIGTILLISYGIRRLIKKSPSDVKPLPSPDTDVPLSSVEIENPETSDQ
ASSAY COMMENT: ELISA, human RBC membranes;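 further: antibodies bound to isolated human red blood cell membrane ghosts coated on 96-well plates, tested 1.5 h at room temperature, bound antibody quantified with a detection antibody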
Please enter fulfilled where binding by ELISA relative to parental is greater than or equal to 0.9, and not fulfilled where it is lower.

Q. Item TPP-5332 (Fab, V domains shown, also called VH: (K74T)) VH: EVQLVQSGAEVKKPGASVKVSCKASGYTFTTYTIHWVRQAPGQGLEWIGYINPSSDYTRYNPKFKDRVTLTTDTSTSTAYMELRSLRSDDTAVYYCQTGTRDYWGQGTTVTVSS VL: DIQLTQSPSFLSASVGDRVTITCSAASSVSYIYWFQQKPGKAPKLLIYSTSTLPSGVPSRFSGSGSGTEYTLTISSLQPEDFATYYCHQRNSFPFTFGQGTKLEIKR with binding by ELISA relative to parental of 0.9 or above?
A. not fulfilled

Q. Item TPP-5342 (Fab, V domains shown, also called VL: (S27Q)) VH: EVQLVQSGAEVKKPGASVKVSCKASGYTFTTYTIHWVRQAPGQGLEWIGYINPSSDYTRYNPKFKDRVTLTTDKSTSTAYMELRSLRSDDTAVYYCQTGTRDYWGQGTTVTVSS VL: DIQLTQSPSFLSASVGDRVTITCSAAQSVSYIYWFQQKPGKAPKLLIYSTSTLPSGVPSRFSGSGSGTEYTLTISSLQPEDFATYYCHQRNSFPFTFGQGTKLEIKR with binding by ELISA relative to parental of 0.9 or above?
A. not fulfilled

Q. Item TPP-5328 (Fab, V domains shown, also called VH: (K65Q)) VH: EVQLVQSGAEVKKPGASVKVSCKASGYTFTTYTIHWVRQAPGQGLEWIGYINPSSDYTRYNPKFQDRVTLTTDKSTSTAYMELRSLRSDDTAVYYCQTGTRDYWGQGTTVTVSS VL: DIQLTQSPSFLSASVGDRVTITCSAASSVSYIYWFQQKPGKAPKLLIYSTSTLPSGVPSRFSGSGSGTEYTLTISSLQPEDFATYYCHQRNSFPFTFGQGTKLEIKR with binding by ELISA relative to parental of 0.9 or above?
A. not fulfilled

Q. Item TPP-5348 (Fab, V domains shown, also called VL: (S49A)) VH: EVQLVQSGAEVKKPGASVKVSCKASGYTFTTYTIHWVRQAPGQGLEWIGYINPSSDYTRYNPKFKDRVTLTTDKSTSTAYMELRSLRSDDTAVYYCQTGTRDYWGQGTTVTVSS VL: DIQLTQSPSFLSASVGDRVTITCSAASSVSYIYWFQQKPGKAPKLLIYATSTLPSGVPSRFSGSGSGTEYTLTISSLQPEDFATYYCHQRNSFPFTFGQGTKLEIKR with binding by ELISA relative to parental of 0.9 or above?
A. fulfilled

Q. Item TPP-4935 (Fab, V domains shown, also called Parental; hu6C12-24 parental Fab) VH: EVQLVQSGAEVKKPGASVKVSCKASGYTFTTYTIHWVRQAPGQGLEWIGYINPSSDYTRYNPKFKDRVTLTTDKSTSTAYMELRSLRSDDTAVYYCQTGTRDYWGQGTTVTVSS VL: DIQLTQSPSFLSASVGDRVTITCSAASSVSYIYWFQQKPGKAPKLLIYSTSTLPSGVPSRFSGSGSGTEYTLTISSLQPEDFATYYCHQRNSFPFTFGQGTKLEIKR with binding by ELISA relative to parental of 0.9 or above?
A. fulfilled

Hey, just so you know, these numbers are from patent US20190359687A1.
